# Tested on: NCI-H226 lung
# protocol-text: NCI tumour cell line growth inhibition, 48 h
Kindly supply the reported TGI values for the records listed here.

Example cases with answers are listed next.
compound	endpoint-result
Cc1ccc2[nH]c3c(c2c1)C1CCC(C(C)(C)C)CC1C1C(=O)N(c2ccc(Oc4ccccc4)cc2)C(=O)C31 (stereo unspecified)	> 86.9 µM
CC(NC(=O)c1ccc(Cl)c(Cl)c1)c1ccc(-c2ccccc2)cc1 (stereo unspecified)	78.7 µM
O=S(=O)(c1ccccc1)N1CCC1c1ccccc1 (stereo unspecified)	> 100 µM
C#CCOC(=O)C=[N+]=[N-]	> 10 µM
O=[N+]([O-])c1ccc(Cl)c(C2CC(c3cccc4ccccc34)=Nc3ccccc3S2=O)c1 (stereo unspecified)	> 54.5 µM

# input for lookup
Write down TGI measured for item CCN1CC2=C(OC(N)=C(C#N)C2c2ccc(Cl)cc2)/C(=C/c2ccc(Cl)cc2)C1 (stereo unspecified)
94.3 µM

====

Kindly supply the reported TGI values for the records listed here.
# Test system: RPMI-8226 leukemia
# protocol-text: NCI tumour cell line growth inhibition, 48 h

structure-smiles-string	parameter	endpoint-result
CC(C)Cn1cnc2c(N)nc3ccccc3c21	TGI	> 48.3 µM
COCCn1c(Nc2ccc(C(=O)NO)cc2)nc2ccccc21	TGI	> 100 µM
C[C@]12CC[C@H]3[C@@H](CCC4=CC(=O)CC[C@@]43C)[C@]1(O)CC[C@]2(O)C(=O)CO	TGI	> 100 µM

# input for lookup
Write down TGI measured for item "Cc1cc2c(cc1Cl)SSc1cc(Cl)c(C)cc1S(=O)(=O)Nc1nc(N)nn1C(O)n1nc(N)nc1NS2(=O)=O"
> 10 µM

====

# Test system: NCI-H460 lung
# protocol-text: NCI tumour cell line growth inhibition, 48 h
parameter: TGI

Example cases with answers are listed next.
structure-smiles-string	parameter	endpoint-result
CC(=O)Nc1ccc(CC[C@H]2CCC/C=C/[C@@H]3C[C@H](O)C[C@H]3[C@H](O)/C=C/C(=O)O2)cc1	TGI	> 100 µM
COc1cc2c(c3nc4ccccc4nc13)-c1ccc(SC)c(=O)cc1[C@@H](NC(C)=O)CC2	TGI	> 100 µM

Write down TGI measured for item "CCCCOC(=O)Nc1ccc(S(=O)(=O)Nc2c(Cl)cccc2Cl)cc1"
> 100 µM

====

# Tested on: LOX IMVI melanoma
# protocol-text: NCI tumour cell line growth inhibition, 48 h
Kindly supply the reported TGI values for the records listed here.

structure-smiles-string	TGI
CC(C)OC(=O)Nc1c([N+](=O)[O-])cc(C(F)(F)F)cc1[N+](=O)[O-]	> 100 µM
Cc1cc2c3c(c1)S(=O)(=O)c1cc(Cl)ccc1N3CCC2	> 100 µM

Write down TGI measured for item "COC(=O)/C(=C(/C)c1ccco1)P(=O)(OC)OC"
> 100 µM

====

# Test system: MALME-3M melanoma
# protocol-text: NCI tumour cell line growth inhibition, 48 h
Kindly supply the reported TGI values for the records listed here.

Example cases with answers are listed next.
structure-smiles-string	target-or-test-system	endpoint-result
O=C(Nc1ccc(Nc2ccc3c(c2)C(=O)c2ccccc2C3=O)c2c1C(=O)c1ccccc1C2=O)c1ccccc1	MALME-3M melanoma	> 100 µM
Clc1ccc(NCNC2Nc3ccccc3N2)cc1Cl	MALME-3M melanoma	> 100 µM

# input for lookup
Write down TGI measured for item "CCCCCOC(=O)c1c(C)[nH]c(/C=C2\N=C(c3ccc[nH]3)C=C2OC)c1C"
1.97 µM
